Reference source: paper PMC7156458

Please respond with reported Th-T fluorescence, mean of three wells for every item in the list.
target: UniProt P05067; assay: Th-T (thioflavin-T) assay of Aβ42 aggregation; type: biochemical; conditions: time-course reading M104; Supplementary Fig. 47 source data
Sequence (P05067 672-713): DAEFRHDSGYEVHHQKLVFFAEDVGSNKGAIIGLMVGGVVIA
Give bare numbers.

In [3]: df
Out[3]:
                                   compound  recorded_measurement
0  C=C1CCC2C(C)(CCC=C(C)C)C(O)CCC2(C)C1Cc1c(O)c(C)c(C)oc1=O (centres unmarked) [Compound 9, higginsianin B]                2.8075
1  C=C1CCC2C(C)(CCC=C(C)C)C(O)CCC2(C)C1Cc1c(OC)oc(C)c(C(=O)OC)c1=O (centres unmarked)                 1.605
2  C=C1CCC2C(C)(CCC=C(C)C)C(O)CCC2(C)C1Cc1c(O)c(C)c(C)oc1=O (centres unmarked) [Compound 4]                 2.782
3  C=C1CC[C@@H]2[C@](C)(CC[C@H]3O[C@H](C=C(C)C)C[C@@]23C)[C@@H]1Cc1c(OC)oc(CO)c(C(=O)OC)c1=O                 1.045
4  C=C1CC[C@@H]2[C@](C)(CC[C@H]3O[C@H](C=C(C)C)C[C@@]23C)[C@@H]1Cc1c(OC)oc(CO)c(C)c1=O                 4.203
5  C=C1CC[C@H]2[C@]3(C)C[C@H](C=C(C)C)O[C@H]3CC[C@]2(C)[C@@H]1Cc1c(OC)oc(CO)c(C)c1=O                 3.892

State the recorded Th-T fluorescence, mean of three wells for every item in the following list.
1. C=C1CCC2C(C)(CCC=C(C)C)C(O)CCC2(C)C1Cc1c(OC)oc(C)c(C)c1=O (centres unmarked) [Compound 11]
2. C=C1CCC2C(C)(CCC=C(C)C)C(O)CCC2(C)C1Cc1c(OC)oc(CO)c(C)c1=O (centres unmarked)
3. C=C1CCC2C(C)(CC(=O)C=C(C)C)C(O)CCC2(C)C1Cc1c(O)c(C)c(C)oc1=O (centres unmarked)
4. C=C1CC[C@H]2[C@]3(C)C[C@@H](C=C(C)C)O[C@H]3CC[C@]2(C)[C@@H]1Cc1c(OC)oc(CO)c(C)c1=O
5. C=C1CCC2C(C)(CCC=C(C)C)C(O)CCC2(C)C1Cc1c(OC)oc(CO)c(C(=O)OC)c1=O (centres unmarked)
6. C=C1CC[C@H]2[C@]3(C)C[C@@H](C=C(C)C)O[C@H]3CC[C@]2(C)[C@@H]1Cc1c(O)c(C)c(C)oc1=O
7. C=C1CC[C@@H]2[C@](C)(CC[C@H]3O[C@H](C=C(C)C)C[C@@]23C)[C@@H]1Cc1c(O)c(C)c(C)oc1=O

[3.513, 2.071, 3.491, 3.695, 1.042, 2.674, 3.0181]

Please report the measured Th-T fluorescence, mean of three wells for C=C1CCC2C(C)(CC(=O)C=C(C)C)C(O)CCC2(C)C1Cc1c(OC)oc(C)c(C)c1=O (centres unmarked) tested on UniProt P05067.
3.626
